Tested on: spontaneously hypertensive rats (SHRs)
method notes: Effect on blood pressure and heart rate in SHR
Type: in vivo, rat
assay context: ratio of heart rate ED10 to blood pressure ED30 in SHR
property measured: ED10/ED30
# respond with the number and nothing more

Please review the entries below; each comes with its answer.
                                   compound  test_result
0  Nc1nc(C#CC2(O)CCCCCCC2)nc2c1ncn2[C@@H]1O[C@H](CO)[C@@H](O)[C@H]1O         1231
1  Nc1nc(C#CC2(O)CCCCC2)nc2c1ncn2[C@@H]1O[C@H](CO)[C@@H](O)[C@H]1O          235

API: the following record is the query input.
Lookup: State, for spontaneously hypertensive rats (SHRs), measured ED10/ED30 of the compound listed here: CCCCCCC#Cc1nc(N)c2ncn([C@@H]3O[C@H](CO)[C@@H](O)[C@H]3O)c2n1 [2-Octynyladenosine, reference compound]
Found: 258

###

# Ki listing for each entry below
assayed system: A1 adenosine receptors (Rattus norvegicus, UniProt P25099)
Sequence (P25099 1-326): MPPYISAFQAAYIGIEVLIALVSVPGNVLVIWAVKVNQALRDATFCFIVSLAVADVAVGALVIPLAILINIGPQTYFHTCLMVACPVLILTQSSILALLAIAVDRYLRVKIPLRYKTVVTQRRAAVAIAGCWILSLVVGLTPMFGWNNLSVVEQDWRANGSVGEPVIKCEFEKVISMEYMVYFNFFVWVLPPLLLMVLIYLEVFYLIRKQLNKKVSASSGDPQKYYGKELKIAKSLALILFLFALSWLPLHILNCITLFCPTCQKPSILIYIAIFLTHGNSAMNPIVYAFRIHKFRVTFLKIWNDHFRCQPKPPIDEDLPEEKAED
Field: numeric (nM). Do not append units.

>>> print(df.to_string())
                              sample_smiles  property_measured  test_result
0  Nc1nc(C#CCC2CCCC2)nc2c1ncn2[C@@H]1O[C@H](CO)[C@@H](O)[C@H]1O                 Ki          162
1  Nc1nc(C#CC2(O)CCCCCCC2)nc2c1ncn2[C@@H]1O[C@H](CO)[C@@H](O)[C@H]1O                 Ki           56

Lookup: Give recorded Ki. Nc1nc(C#CC2(O)CCCCC2)nc2c1ncn2[C@@H]1O[C@H](CO)[C@@H](O)[C@H]1O
Found: 21

Lookup: Give recorded Ki. Nc1nc(C#CCC2CCCCC2)nc2c1ncn2[C@@H]1O[C@H](CO)[C@@H](O)[C@H]1O
Found: 208

###

System: spontaneously hypertensive rats (SHRs)
method notes: Effect on blood pressure and heart rate in SHR
Type: in vivo, rat
assay context: amount giving a 10 percent decrease in initial heart rate; anesthetized male SHR; cumulative administration through femoral veins
# Heart Rate ED10 listing for each entry below
Field: numeric (mg/kg). Do not append units.

>>> df
                                   molecule  test_result
0  Nc1nc(C#CC2(O)CCCCC2)nc2c1ncn2[C@@H]1O[C@H](CO)[C@@H](O)[C@H]1O [Compound No. 29]      0.00329
1  CCCCCCC#Cc1nc(N)c2ncn([C@@H]3O[C@H](CO)[C@@H](O)[C@H]3O)c2n1 [2-Octynyladenosine, reference compound]       0.0645

API: the following record is the query input.
Lookup: Give recorded Heart Rate ED10. Nc1nc(C#CC2(O)CCCCCCC2)nc2c1ncn2[C@@H]1O[C@H](CO)[C@@H](O)[C@H]1O [Compound No. 45]
Found: 0.01478

The values you see were collected from patent US5189027A.
